target or system: Voltage-dependent T-type calcium channel subunit alpha-1G (Homo sapiens)
measurement protocol: Inhibition of T-type calcium channel Cav3.1 with alpha-1G subunit expressed in HEK293 cells at 100 uM by FDSS6000 assay
Type: cell-based
setup conditions: 100 uM
Response key: 1 means inhibition >= 20%; 0 means inhibition < 20%.

Use these answered entries as a reference point.
- COc1ccc(Cn2c(=O)[nH]c3cc(C(=O)NCCCN4CCCC4)ccc3c2=O)cc1: 1
- CCCn1c(=O)[nH]c2cc(C(=O)NCCN3CCCC3)ccc2c1=O: 0
- COc1cccc(-n2c(=O)[nH]c3cc(C(=O)NCCCN4CCCCC4C)ccc3c2=O)c1 (centres undefined): 0
- O=C(NCCN1CCCCC1)c1ccc2c(=O)n(Cc3cccc(F)c3)c(=O)[nH]c2c1: 1
- O=C(NCCCN1CCOCC1)c1ccc2c(=O)n(-c3cccc(F)c3)c(=O)[nH]c2c1: 0
- O=C(NCCN1CCCC1)c1ccc2c(=O)n(Cc3ccccc3F)c(=O)[nH]c2c1: 1
- CN1CCN(CCCNC(=O)c2ccc3c(=O)n(Cc4ccccc4F)c(=O)[nH]c3c2)CC1: 0
- CC1CCCCN1CCCNC(=O)c1ccc2c(=O)n(Cc3cccc(F)c3)c(=O)[nH]c2c1 (centres undefined): 1

Next up:
Problem: Quick check: does `COc1ccccc1-n1c(=O)[nH]c2cc(C(=O)NCCCN3CCCC3)ccc2c1=O` have inhibition greater than or equal to 20%?
Solution: 0

---

Items are presented alongside their recorded IC50.
target or system: Voltage-dependent T-type calcium channel subunit alpha-1G (Homo sapiens)
measurement protocol: Inhibition of T-type calcium channel Cav3.1 with alpha-1G subunit by patch clamp assay
API: value field is a number in µM; no unit string.

Example entries and their recorded answers appear below.
- O=C(NCCN1CCCCC1)c1ccc2c(=O)n(Cc3cccc(F)c3)c(=O)[nH]c2c1: 16.9
- O=C(NCCN1CCCCC1)c1ccc2c(=O)n(Cc3ccc(F)cc3)c(=O)[nH]c2c1: 9.23
- CCC1CCCCN1CCNC(=O)c1ccc2c(=O)n(Cc3ccc(F)cc3)c(=O)[nH]c2c1 (stereo unspecified): 7.98
- O=C(NCCN1CCCC1)c1ccc2c(=O)n(C3CCCCC3)c(=O)[nH]c2c1: 7.96
- O=C(NCCN1CCCCC1)c1ccc2c(=O)n(Cc3ccc(Cl)cc3)c(=O)[nH]c2c1: 2.08

Problem: Notebook: pull reported IC50 for Voltage-dependent T-type calcium channel subunit alpha-1G (Homo sapiens), entry `O=C(NCCCN1CCCCC1)c1ccc2c(=O)n(Cc3ccc(Cl)cc3)c(=O)[nH]c2c1`
Solution: 1.95

---

target or system: Voltage-dependent T-type calcium channel subunit alpha-1G (Homo sapiens, UniProt O43497)
Sequence (O43497 whole entry): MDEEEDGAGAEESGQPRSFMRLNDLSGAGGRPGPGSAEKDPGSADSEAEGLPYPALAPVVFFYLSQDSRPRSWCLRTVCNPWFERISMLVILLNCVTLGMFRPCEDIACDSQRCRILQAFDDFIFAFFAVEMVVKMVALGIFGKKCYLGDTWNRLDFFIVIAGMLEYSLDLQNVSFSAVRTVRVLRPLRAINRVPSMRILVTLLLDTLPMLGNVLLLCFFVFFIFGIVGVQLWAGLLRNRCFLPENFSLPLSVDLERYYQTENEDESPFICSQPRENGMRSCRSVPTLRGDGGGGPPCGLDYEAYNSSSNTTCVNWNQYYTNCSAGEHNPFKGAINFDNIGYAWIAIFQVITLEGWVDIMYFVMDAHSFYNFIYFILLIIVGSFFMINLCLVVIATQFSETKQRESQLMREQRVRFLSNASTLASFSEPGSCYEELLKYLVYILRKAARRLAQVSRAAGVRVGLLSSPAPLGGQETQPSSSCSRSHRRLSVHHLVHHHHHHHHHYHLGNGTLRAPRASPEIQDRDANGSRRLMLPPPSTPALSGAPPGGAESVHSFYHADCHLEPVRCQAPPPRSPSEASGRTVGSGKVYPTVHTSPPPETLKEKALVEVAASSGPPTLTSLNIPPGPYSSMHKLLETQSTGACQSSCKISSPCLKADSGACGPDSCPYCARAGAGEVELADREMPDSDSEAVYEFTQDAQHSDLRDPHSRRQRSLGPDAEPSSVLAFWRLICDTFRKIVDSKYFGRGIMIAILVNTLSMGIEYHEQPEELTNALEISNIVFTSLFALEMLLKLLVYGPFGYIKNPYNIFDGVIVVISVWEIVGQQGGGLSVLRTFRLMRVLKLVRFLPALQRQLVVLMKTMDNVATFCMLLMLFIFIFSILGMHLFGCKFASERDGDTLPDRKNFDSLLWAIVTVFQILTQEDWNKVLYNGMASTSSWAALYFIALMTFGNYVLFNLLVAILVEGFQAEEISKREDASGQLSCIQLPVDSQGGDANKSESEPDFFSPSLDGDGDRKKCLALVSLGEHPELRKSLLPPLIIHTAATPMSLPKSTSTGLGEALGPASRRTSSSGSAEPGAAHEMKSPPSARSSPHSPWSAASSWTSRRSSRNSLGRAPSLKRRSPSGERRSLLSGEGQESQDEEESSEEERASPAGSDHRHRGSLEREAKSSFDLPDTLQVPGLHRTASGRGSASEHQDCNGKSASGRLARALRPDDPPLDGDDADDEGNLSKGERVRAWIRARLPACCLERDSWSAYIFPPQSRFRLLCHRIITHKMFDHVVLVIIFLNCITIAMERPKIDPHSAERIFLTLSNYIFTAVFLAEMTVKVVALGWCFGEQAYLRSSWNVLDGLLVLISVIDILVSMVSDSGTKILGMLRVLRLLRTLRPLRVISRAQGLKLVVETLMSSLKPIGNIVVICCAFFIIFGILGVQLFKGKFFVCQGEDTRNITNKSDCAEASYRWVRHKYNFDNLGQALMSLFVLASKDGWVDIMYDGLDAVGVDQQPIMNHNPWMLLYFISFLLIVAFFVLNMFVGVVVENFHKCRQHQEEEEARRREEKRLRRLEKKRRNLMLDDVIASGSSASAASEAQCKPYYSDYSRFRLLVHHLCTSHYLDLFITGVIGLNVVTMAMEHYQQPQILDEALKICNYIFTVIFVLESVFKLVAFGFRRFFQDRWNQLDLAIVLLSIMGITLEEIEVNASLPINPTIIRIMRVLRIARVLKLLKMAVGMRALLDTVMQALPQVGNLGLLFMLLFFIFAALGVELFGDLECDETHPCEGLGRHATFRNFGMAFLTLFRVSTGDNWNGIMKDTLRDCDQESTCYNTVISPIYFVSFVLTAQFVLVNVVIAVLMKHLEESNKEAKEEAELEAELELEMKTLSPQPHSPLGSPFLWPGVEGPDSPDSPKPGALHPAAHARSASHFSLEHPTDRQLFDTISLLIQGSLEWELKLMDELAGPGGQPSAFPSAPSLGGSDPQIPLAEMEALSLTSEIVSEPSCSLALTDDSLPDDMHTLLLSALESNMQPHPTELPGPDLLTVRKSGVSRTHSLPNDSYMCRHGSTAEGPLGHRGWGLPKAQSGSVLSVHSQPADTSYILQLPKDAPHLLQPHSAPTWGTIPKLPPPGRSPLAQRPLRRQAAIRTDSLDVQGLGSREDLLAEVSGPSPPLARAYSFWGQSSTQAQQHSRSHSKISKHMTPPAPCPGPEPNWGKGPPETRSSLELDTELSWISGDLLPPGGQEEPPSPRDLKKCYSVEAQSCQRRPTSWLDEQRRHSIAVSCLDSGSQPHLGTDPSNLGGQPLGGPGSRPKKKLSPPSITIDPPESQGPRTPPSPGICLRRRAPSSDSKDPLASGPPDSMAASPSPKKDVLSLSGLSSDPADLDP
measurement protocol: Inhibition of T-type calcium channel Cav3.1 with alpha-1G subunit expressed in HEK293 cells at 100 uM by FDSS6000 assay
Format: cell-based
setup conditions: 100 uM
assay readout: inhibition

Example entries and their recorded answers appear below.
• CCCn1c(=O)[nH]c2cc(C(=O)NCCCN3CCOCC3)ccc2c1=O = 9.2%
• CN1CCN(CCCNC(=O)c2ccc3c(=O)n(-c4ccccc4F)c(=O)[nH]c3c2)CC1 = 2.4%

Problem: If you can, please state the reported inhibition value of `Cn1c(=O)[nH]c2cc(C(=O)NCCN3CCCCC3)ccc2c1=O` .
Solution: 17.6%

---

target or system: Voltage-dependent T-type calcium channel subunit alpha-1G (Homo sapiens)
measurement protocol: Inhibition of T-type calcium channel Cav3.1 with alpha-1G subunit expressed in HEK293 cells at 100 uM by FDSS6000 assay
Format: cell-based
setup conditions: 100 uM
Response key: satisfied means inhibition >= 10%; not satisfied means inhibition < 10%.

Use these answered entries as a reference point.
* COc1cccc(Cn2c(=O)[nH]c3cc(C(=O)NCCCN4CCN(C)CC4)ccc3c2=O)c1 | satisfied
* CCCn1c(=O)[nH]c2cc(C(=O)NCCCN3CCCCC3C)ccc2c1=O (stereo not given) | satisfied
* O=C(NCCN1CCCCC1)c1ccc2c(=O)n(Cc3ccc(F)cc3)c(=O)[nH]c2c1 | satisfied
* CC1CCCCN1CCCNC(=O)c1ccc2c(=O)n(C3CCCCC3)c(=O)[nH]c2c1 (stereo not given) | satisfied

Next up:
Problem: Quick check: does `O=C(NCCN1CCCC1)c1ccc2c(=O)n(-c3ccccc3F)c(=O)[nH]c2c1` have inhibition greater than or equal to 10%?
Solution: not satisfied
